// provenance: patent US20260183275A1

Catalogue of compounds with associated pIC50
target: human TLR7 (Homo sapiens, UniProt Q9NYK1)
Sequence (Q9NYK1 27-1049): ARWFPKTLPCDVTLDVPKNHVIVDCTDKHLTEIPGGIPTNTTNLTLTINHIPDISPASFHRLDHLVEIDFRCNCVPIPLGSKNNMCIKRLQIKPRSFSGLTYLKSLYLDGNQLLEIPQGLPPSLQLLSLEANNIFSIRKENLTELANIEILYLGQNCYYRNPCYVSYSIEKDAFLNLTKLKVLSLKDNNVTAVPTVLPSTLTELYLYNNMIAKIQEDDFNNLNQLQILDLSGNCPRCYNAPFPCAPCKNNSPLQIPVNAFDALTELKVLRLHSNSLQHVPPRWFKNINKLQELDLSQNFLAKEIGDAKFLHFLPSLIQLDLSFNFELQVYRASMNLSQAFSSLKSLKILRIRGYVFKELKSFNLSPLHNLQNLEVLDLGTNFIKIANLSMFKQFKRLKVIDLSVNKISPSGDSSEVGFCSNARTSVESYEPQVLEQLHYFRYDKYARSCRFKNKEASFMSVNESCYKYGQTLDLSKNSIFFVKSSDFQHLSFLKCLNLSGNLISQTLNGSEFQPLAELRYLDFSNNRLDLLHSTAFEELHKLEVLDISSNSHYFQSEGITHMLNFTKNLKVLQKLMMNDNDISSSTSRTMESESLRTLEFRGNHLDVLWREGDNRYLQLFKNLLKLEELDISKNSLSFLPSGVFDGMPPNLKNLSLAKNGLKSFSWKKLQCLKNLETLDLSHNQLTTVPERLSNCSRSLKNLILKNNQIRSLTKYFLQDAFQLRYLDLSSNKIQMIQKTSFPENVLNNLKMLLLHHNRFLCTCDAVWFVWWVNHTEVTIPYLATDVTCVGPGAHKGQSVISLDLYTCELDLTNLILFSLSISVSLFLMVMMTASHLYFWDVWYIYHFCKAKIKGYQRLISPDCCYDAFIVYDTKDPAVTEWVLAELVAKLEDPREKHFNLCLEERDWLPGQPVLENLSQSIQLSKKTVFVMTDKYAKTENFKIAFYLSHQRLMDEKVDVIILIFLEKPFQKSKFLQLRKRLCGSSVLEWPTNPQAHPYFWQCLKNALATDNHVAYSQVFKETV
protocol summary: TLR7 inhibition reporter assay (HEK-Blue cells, SEAP reporter)
condition summary: HEK-Blue cells overexpressing human TLR7; stimulated with gardiquimod 7.5 μM; SEAP read after 22 hour; dose range 0.05 nM-50 μM
Procedure: HEK-Blue™-cells (Invivogen) overexpressing human TLR7, TLR8 or TLR9 receptors were used for screening inhibitors of these receptors using an inducible SEAP (secreted embryonic alkaline phosphatase) reporter gene under the control of the IFN-β minimal promoter fused to five NF-κB and AP-1-binding sites. […] The percent inhibition is determined as the % reduction in the HEK-Blue signal present in wells treated with agonist plus DMSO alone compared to wells treated with a known inhibitor.
Scale: negative log10 of molar concentration, which is what pIC50 denotes.

Examples from the recorded data:
# line notation, pIC50
records = [
    ("CNC(=O)c1ccc(-c2cc3cc(-c4ccc(N5CCN(C(C)C)CC5)cc4)ccc3[nH]c2=O)cc1", 4.89),
    ("CC(C)N1CCN(c2ccc(-c3ccc4[nH]c(=O)c(-c5ccccc5Cl)cc4c3)cc2)CC1", 5.25),
    ("CC(C)C(=O)Nc1ccc(-c2cc3cc(-c4ccc(N5CCN(C(C)C)CC5)cc4)ccc3n(C)c2=O)cc1", 5.75),
    ("CC(C)N1CCC(c2ccc(-c3ccc4c(c3)cc(-c3ccccc3)c(=O)n4C)cc2)CC1", 5.83),
]

For the next question, use this compound.
If you can, please state the reported pIC50 value of CC(C)N1CCC(c2ccc(-c3ccc4[nH]c(=O)c(-c5ccc(S(N)(=O)=O)cc5)cc4c3)cc2)CC1 .
6.47
